Where these numbers come from: patent US10280159B2

- system.under.test: human S1PR5 (Homo sapiens)
- Construct: host or cells: CHO-K1
- Sequence (Q9H228 whole entry): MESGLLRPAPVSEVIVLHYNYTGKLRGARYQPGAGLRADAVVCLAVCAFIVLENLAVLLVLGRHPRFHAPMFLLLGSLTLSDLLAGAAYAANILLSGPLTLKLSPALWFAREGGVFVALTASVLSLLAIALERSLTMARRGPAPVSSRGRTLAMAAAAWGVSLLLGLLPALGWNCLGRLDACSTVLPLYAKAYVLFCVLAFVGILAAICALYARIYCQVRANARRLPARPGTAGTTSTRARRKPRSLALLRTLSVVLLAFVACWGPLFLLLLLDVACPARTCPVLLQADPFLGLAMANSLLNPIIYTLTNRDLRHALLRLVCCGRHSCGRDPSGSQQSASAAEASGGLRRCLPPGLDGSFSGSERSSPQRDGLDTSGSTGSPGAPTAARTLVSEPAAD
- experimental.details: Intracellular Ca2+ release (FLIPR) agonist potency, S1P5
- Format: cell-based
- recorded.conditions: recombinant CHO-K1 cells expressing human S1PR5, aequorin, Gq/i5; Calcium 5 FLIPR; read-out: S1P5 EC50 range
Counter-ions that a name gives are not always drawn.
experimental.readout: EC50

{"columns": ["compound", "system.under.test", "experimental.result"],
 "data": [
  ["COc1cc(COc2ccc3c(c2)OCC(N2CC(C(=O)O)C2)C3)ccc1F (stereo not drawn)", "human S1PR5 (Homo sapiens)", "1000 to 10000 nM"],
  ["CCc1cccc(F)c1COc1ccc2c(c1)OCC(N1CC(C(=O)O)C1)C2 (single isomer, unassigned) [Compound 147]", "human S1PR5 (Homo sapiens)", "< 10 nM"],
  ["CN(CCC(=O)O)C1CCc2cc(OCc3ccccc3Cl)ccc2C1 (stereo not drawn)", "human S1PR5 (Homo sapiens)", "100 to 1000 nM"],
  ["O=C(O)COC1CCc2cc(OCc3cc(C(F)(F)F)ccc3Cl)ccc2C1 (stereo not drawn)", "human S1PR5 (Homo sapiens)", "1000 to 10000 nM"],
  ["O=C(O)C1CN(C2COc3cc(OCc4c(F)cccc4C(F)(F)F)ccc3C2)C1 (stereo not drawn)", "human S1PR5 (Homo sapiens)", "10 to 100 nM"],
  ["CCc1cccc(Cl)c1COc1ccc2c(c1)OCC(NC1(CC(=O)O)CCCC1)C2 (stereo not drawn)", "human S1PR5 (Homo sapiens)", "< 10 nM"],
  ["CCc1cccc(F)c1COc1ccc2c(c1)OCC(N1CCC(CC(=O)O)C1)C2 (stereo not drawn)", "human S1PR5 (Homo sapiens)", "< 10 nM"],
  ["O=C(O)CNC1CCc2cc(C#Cc3c(Cl)cccc3Cl)ccc2C1 (stereo not drawn)", "human S1PR5 (Homo sapiens)", "< 10 nM"],
  ["O=C(O)C1CN(C2COc3cc(OCc4cccc(C(F)(F)F)c4F)ccc3C2)C1 (stereo not drawn)", "human S1PR5 (Homo sapiens)", "1000 to 10000 nM"],
  ["O=C(O)C1CN(C2COc3cc(OCc4ccc(C(F)(F)F)cc4)ccc3C2)C1 (stereo not drawn)", "human S1PR5 (Homo sapiens)", "1000 to 10000 nM"],
  ["O=C(O)COC1CCc2cc(OCc3c(Cl)cccc3C(F)(F)F)ccc2C1 (stereo not drawn)", "human S1PR5 (Homo sapiens)", "< 10 nM"],
  ["Cc1cc(COc2ccc3c(c2)OCC(N2CC(C(=O)O)C2)C3)ccc1F (stereo not drawn)", "human S1PR5 (Homo sapiens)", "1000 to 10000 nM"],
  ["CCc1cccc(F)c1COc1ccc2c(c1)OCC(NC13CC(C(=O)O)(C1)C3)C2 (stereo not drawn)", "human S1PR5 (Homo sapiens)", "10 to 100 nM"],
  ["Cc1cc2c(cc1OCc1c(Cl)cccc1Cl)OCC(N1CC(C(=O)O)C1)C2 (stereo not drawn)", "human S1PR5 (Homo sapiens)", "10 to 100 nM"],
  ["O=C(O)CCNC1CCc2cc(OCc3ccccc3Cl)ccc2C1 (stereo not drawn)", "human S1PR5 (Homo sapiens)", "< 10 nM"],
  ["O=C(O)C1CN(C2COc3cc(OCc4ccc(C(F)(F)F)c(F)c4)ccc3C2)C1 (stereo not drawn)", "human S1PR5 (Homo sapiens)", "1000 to 10000 nM"],
  ["CCc1cccc(F)c1COc1ccc2c(c1)OCC(NC1(CC(=O)O)CC1)C2 (stereo not drawn)", "human S1PR5 (Homo sapiens)", "< 10 nM"],
  ["CC(C)(C)c1ccc(COc2ccc3c(c2)CCC(OCCC(=O)O)C3)cc1 (stereo not drawn)", "human S1PR5 (Homo sapiens)", "1000 to 10000 nM"],
  ["O=C(O)C12CC1CCN2C1CCc2cc(OCc3c(Cl)cccc3Cl)ccc2C1 (stereo not drawn)", "human S1PR5 (Homo sapiens)", "100 to 1000 nM"],
  ["CSc1ccc(COc2ccc3c(c2)CCC(OCCC(=O)O)C3)cc1 (stereo not drawn)", "human S1PR5 (Homo sapiens)", "1000 to 10000 nM"],
  ["Cc1cccc(COc2ccc3c(c2)OCC(N2CC(C(=O)O)C2)C3)c1 (stereo not drawn)", "human S1PR5 (Homo sapiens)", "1000 to 10000 nM"],
  ["Cc1cc(C)cc(COc2ccc3c(c2)CCC(OCC(=O)O)C3)c1 (stereo not drawn)", "human S1PR5 (Homo sapiens)", "1000 to 10000 nM"],
  ["CCc1ccccc1COc1ccc2c(c1)OCC(N1CC(C(=O)O)C1)C2 (stereo not drawn)", "human S1PR5 (Homo sapiens)", "10 to 100 nM"],
  ["CCc1cccc(Cl)c1COc1ccc2c(c1)CCC1C2OCCN1CCC(=O)O (stereo not drawn) [Compound 82, hydrochloride]", "human S1PR5 (Homo sapiens)", "< 10 nM"],
  ["O=C(O)C1(CNC2COc3cc(OCc4c(Cl)cccc4Cl)ccc3C2)CC1 (stereo not drawn)", "human S1PR5 (Homo sapiens)", "100 to 1000 nM"],
  ["O=C(O)C1CN(C2COc3cc(-c4ccc(OCc5ccc(Cl)cc5)cc4)ccc3C2)C1 (stereo not drawn)", "human S1PR5 (Homo sapiens)", "< 10 nM"],
  ["O=C(O)COC1CCc2cc(OCc3ccc(F)c(F)c3)ccc2C1 (stereo not drawn)", "human S1PR5 (Homo sapiens)", "1000 to 10000 nM"],
  ["O=C(O)COC1CCc2cc(OCc3ccccc3C(F)(F)F)ccc2C1 (stereo not drawn)", "human S1PR5 (Homo sapiens)", "100 to 1000 nM"],
  ["O=C(O)C1CN(C2COc3cc(OCc4c(Cl)cccc4Cl)ccc3C2)C1 (single isomer, unassigned) [Compound 144]", "human S1PR5 (Homo sapiens)", "10 to 100 nM"],
  ["O=C(O)CC1CCN(C2CCc3cc(OCc4c(Cl)cccc4Cl)ccc3C2)C1 (stereo not drawn)", "human S1PR5 (Homo sapiens)", "10 to 100 nM"]
]}
